Collected MIC values appear next to each entry.
# Tested on: Staphylococcus aureus
# TEST DETAILS: Antibacterial activity against Staphylococcus aureus 113 assessed as reduction in bacterial growth incubated for 18 to 24 hrs by broth microdilution method
# Format: functional
# CONDITION SUMMARY: time 18-24 hrs
Peptide text beside a SMILES is read from it. * marks the point of attachment. Lauroyl = CCCCCCCCCCCC(=O)*; Octanoyl = CCCCCCCC(=O)*
Please answer using the number first and the unit second.

Guide cases for MIC, answers given:
{"COMPOUND": "COc1cccc(OC)c1C(=O)N[C@@H]1C(=O)N2[C@@H]1SC(C)(C)[C@@H]2C(=O)O [METHICILLIN]", "TARGET OR SYSTEM": "Staphylococcus aureus", "MIC": "8 µM"}
{"COMPOUND": "CCCCCCCC(=O)NCCCC[C@H](NC(=O)CCCCCCC)C(=O)N[C@@H](CCCCN)C(=O)N[C@@H](CCCCN)C(=O)N[C@@H](Cc1c[nH]c2ccccc12)C(=O)N[C@@H](Cc1c[nH]c2ccccc12)C(N)=O (Octanoyl-K(Octanoyl)KKWW-NH2)", "TARGET OR SYSTEM": "Staphylococcus aureus", "MIC": "8 µM"}

query: Which MIC value is on record for CN[C@@H]1[C@H](O[C@H]2[C@H](O[C@H]3[C@H](O)[C@@H](O)[C@H](N=C(N)N)[C@@H](O)[C@@H]3N=C(N)N)O[C@@H](C)[C@]2(O)C=O)O[C@@H](CO)[C@H](O)[C@H]1O [STREPTOMYCIN] ?
result: 128 µM

query: Which MIC value is on record for CO[C@H]1/C=C/O[C@@]2(C)Oc3c(C)c(O)c4c(O)c(c(/C=N/N5CCN(C)CC5)c(O)c4c3C2=O)NC(=O)/C(C)=C\C=C\[C@H](C)[C@H](O)[C@@H](C)[C@@H](O)[C@@H](C)[C@H](OC(C)=O)[C@@H]1C [RIFAMPIN] ?
result: 1 µM

query: Which MIC value is on record for CC(=O)OCC1=C(C(=O)O)N2C(=O)[C@@H](NC(=O)Cc3cccs3)[C@H]2SC1 [CEPHALOTHIN] ?
result: 8 µM

query: Which MIC value is on record for CCCCCCCCCCCC(=O)N[C@@H](CCCCN)C(=O)N[C@@H](CCCCN)C(=O)N[C@@H](Cc1c[nH]c2ccccc12)C(=O)N[C@@H](Cc1c[nH]c2ccccc12)C(N)=O (Lauroyl-KKWW-NH2) ?
result: 4 µM

---

# Test system: Klebsiella pneumoniae
# TEST DETAILS: Antibacterial activity against Klebsiella pneumoniae ATCC 700603 assessed as reduction in bacterial growth incubated for 18 to 24 hrs by broth microdilution method
# Format: functional
# CONDITION SUMMARY: time 18-24 hrs
Peptide text beside a SMILES is read from it. * marks the point of attachment. Decanoyl = CCCCCCCCCC(=O)*; Octanoyl = CCCCCCCC(=O)*; Butyryl = CCCC(=O)*
Collected MIC values appear next to each entry.
Supply the numeric figure in µM, leaving out any unit text.

{"COMPOUND": "CCCCCCCC(=O)NCCCC[C@H](NC(=O)CCCCCCC)C(=O)N[C@@H](CCCCN)C(=O)N[C@@H](CCCCN)C(=O)N[C@@H](Cc1c[nH]c2ccccc12)C(=O)N[C@@H](Cc1c[nH]c2ccccc12)C(N)=O (Octanoyl-K(Octanoyl)KKWW-NH2)", "TARGET OR SYSTEM": "Klebsiella pneumoniae", "MIC (µM)": 16}
{"COMPOUND": "COc1cccc(OC)c1C(=O)N[C@@H]1C(=O)N2[C@@H]1SC(C)(C)[C@@H]2C(=O)O [METHICILLIN]", "TARGET OR SYSTEM": "Klebsiella pneumoniae", "MIC (µM)": 128}

query: For the record CCCC(=O)N[C@@H](CCCCN)C(=O)N[C@@H](CCCCN)C(=O)N[C@@H](Cc1c[nH]c2ccccc12)C(=O)N[C@@H](Cc1c[nH]c2ccccc12)C(N)=O (Butyryl-KKWW-NH2) , what value of MIC is listed for Klebsiella pneumoniae?
result: 128

query: For the record CN[C@@H]1[C@H](O[C@H]2[C@H](O[C@H]3[C@H](O)[C@@H](O)[C@H](N=C(N)N)[C@@H](O)[C@@H]3N=C(N)N)O[C@@H](C)[C@]2(O)C=O)O[C@@H](CO)[C@H](O)[C@H]1O [STREPTOMYCIN] , what value of MIC is listed for Klebsiella pneumoniae?
result: 1

query: For the record CCCCCCCCCC(=O)N[C@@H](CCCCN)C(=O)N[C@@H](CCCCN)C(=O)N[C@@H](Cc1c[nH]c2ccccc12)C(=O)N[C@@H](Cc1c[nH]c2ccccc12)C(N)=O (Decanoyl-KKWW-NH2) , what value of MIC is listed for Klebsiella pneumoniae?
result: 32
